Data provenance: ChEMBL document CHEMBL1201862

System: SR
Assay Comment: NCI tumour cell line growth inhibition, 48 h
The source made the active and inactive calls. Cut-off read from the data, not from the text of the source: active = GI50 up to about 1.1 µM and inactive = higher.
Possible outcomes: 1 for active, 0 for inactive

Molecule | Target Entity | Group
CC12CC(Br)(Br)C(=O)C3C1CCCC32 | SR | 0
Cc1ccc(/N=N/C(=N\NC(=O)c2ccc(C)cc2)c2ccc(N(CCC#N)CCC#N)cc2C)cc1 | SR | 0
CCCCOC(=O)C1C(c2ccc(Cl)cc2)NC(c2ccc(Cl)cc2)C(C(=O)OCCCC)S1(=O)=O (stereo not given) | SR | 0
O=c1[nH]nc(Cc2ccc(Cl)cc2)n1/N=C/c1ccc([N+](=O)[O-])o1 | SR | 0
O=C(c1nc2ccc(Cl)cc2nc1O)C(O)c1ccccc1 (stereo not given) | SR | 0
Cc1ccccc1N(CCC#N)C1=NN(C(=O)CC(=O)Nc2ccccc2)C(c2ccccc2)C1 (stereo not given) | SR | 0
OCCC/N=C1N=C(Cl)/C(=C\c2ccccc2)N\1 | SR | 0
CC1CCc2sc3nc(S)n(C)c(=O)c3c2C1 (stereo not given) | SR | 0
COc1cc2c(cc1OCCCCCN1C(=O)c3cccc4cccc(c34)C1=O)N=C[C@@H]1CCCN1C2=O | SR | 1
COc1cc2c(c(OC)c1OC)-c1ccc(SC)c(=O)cc1[C@@H](NCc1ccc([N+](=O)[O-])cc1)CC2 | SR | 1
